assay.notes: Toxicity liver stage against HepG2, at 10uM
Assay type: cell-based
Set-up: test concentration 10 uM, cell line HepG2-A16-CD81EGFP
measurement.setup: human, HepG2-A16-CD81EGFP cells; read-out: INHIBITION
measurement.kind: cytotoxicity at 10 µM (%)
Give bare numbers, in %.

>  <compound>
CN(C)C(=O)COCc1nnc2n1CCN(Cc1ccsc1)C2

>  <cytotoxicity at 10 µM, %>
7.16

$$$$
>  <compound>
CC1CCN(CC(O)CNc2ccccn2)CC1 (stereo not given)

>  <cytotoxicity at 10 µM, %>
11.4

$$$$
>  <compound>
Cn1cccc1CNCc1nnc2n1CCCC2C(F)(F)F (stereo not given)

>  <cytotoxicity at 10 µM, %>
-7.53

$$$$
>  <compound>
Cn1cc(C(=O)NCC2CCN(C(=O)NC3CC3)CC2)cn1

>  <cytotoxicity at 10 µM, %>
2.05

$$$$
>  <compound>
CC(NC(=O)NCc1ccccc1)(C(=O)O)c1ccco1 (stereo not given)

>  <cytotoxicity at 10 µM, %>
-3.37

$$$$
>  <compound>
CCN(CC)c1ncc(Cl)c(C(=O)NC2CCc3nccn3C2)n1 (stereo not given)

>  <cytotoxicity at 10 µM, %>
-49.5

$$$$

Hey, can you go through the list below and give me cytotoxicity at 10 µM for every item?
1. O=C(c1ccn(-c2ccccc2Cl)n1)N1CCCSCC1
2. Cn1ccnc1CNCC1CCCN1c1cccnn1 (stereo not given)
3. Cc1ccc(F)c(OC2CCCN(c3cnn(C)c3)C2=O)c1 (stereo not given)
4. CC(C)C(=O)NCc1ccccc1NS(=O)(=O)c1ccccc1
5. O=C(NCc1cccnc1)[C@@H]1C[C@H]2[C@H](CCN2c2ncc(F)cn2)O1
6. CNc1ncc(CN(C)C(=O)c2ccc(C3CCCO3)s2)cn1 (stereo not given)
7. O=C(NC1CC(=O)N(C2Cc3ccccc3C2)C1)c1ccoc1 (stereo not given)

*A*
[4.22, -11.3, -6.43, 9.05, -85.3, 10.2, -2.4]

Parameter requested: cytotoxicity at 10 µM. Apply to each item below.
1. CCOc1ccnc(NCc2nc(C)cc(C(F)(F)F)n2)n1
2. COC(=O)[C@@H]1Cc2ncn(C)c2CN1S(=O)(=O)c1cccs1

*A*
-10.1
-6.25

###

assay.notes: Toxicity liver stage against HepG2, at 10uM
Type: cell-based
Set-up: test concentration 10 uM, cell line HepG2-A16-CD81EGFP
measurement.setup: human, HepG2-A16-CD81EGFP cells; read-out: INHIBITION
measurement.kind: cytotoxicity at 10 µM (%)
One number for each entry, in %.

See these solved cases before continuing.
>  <compound>
Cc1cc(OCC(=O)N2CCCC(c3noc(C(C)C)n3)C2)no1 (stereo not drawn)

>  <measurement.kind>
cytotoxicity at 10 µM

>  <result.value>
-4.56

$$$$
>  <compound>
CN(C)C(=O)Cn1cc(C(=O)NCCc2ccc(C(F)(F)F)cc2)nn1

>  <measurement.kind>
cytotoxicity at 10 µM

>  <result.value>
-15.6

$$$$
>  <compound>
CC(C)N(Cc1cccc(F)c1)Cc1nc2c(cnn2C)c(=O)[nH]1

>  <measurement.kind>
cytotoxicity at 10 µM

>  <result.value>
-10.5

$$$$
>  <compound>
Cc1nc[nH]c1-c1nccn1CCN1CCCC1=O

>  <measurement.kind>
cytotoxicity at 10 µM

>  <result.value>
-6.88

$$$$
>  <compound>
CC(C)(C)C(=O)NS(=O)(=O)c1ccc(F)cc1C(F)(F)F

>  <measurement.kind>
cytotoxicity at 10 µM

>  <result.value>
-1.18

$$$$

Dear colleague, could you please provide cytotoxicity at 10 µM for the compounds listed below?
1. CCOc1ccnc(N2CCCN(C(=O)c3cc[nH]c3C)CC2)n1
2. CCc1nc2c(c(NCc3cc(-c4cccnc4)no3)n1)CCNCC2
3. CC1=N[C@@]2(CC[C@@H]3CN(CC(=O)N(C)C)C[C@@H]32)C(=O)N1CC(C)C
4. CC(=O)c1ccc(N2CCCC(CO)(CCOc3ccccc3)C2)nc1 (stereo not drawn)

*A*
[0.893, 0.811, 9.66, 3.15]

For every listed record, write down its cytotoxicity at 10 µM.
1. Cc1cnn(CCC(=O)N2CCOC(c3nc(C(C)(C)C)n[nH]3)C2)c1 (stereo not drawn)
2. Cc1cccc(CN2CCOCC3(CCN(C4CCOCC4)C3)C2)c1 (stereo not drawn)
3. COCC(=O)N1CC(c2ccnc(Nc3cc(C(F)(F)F)ccn3)n2)C1
4. CC1=Nc2c(c(=O)[nH]n2C2CCCC2)C(c2cccc(O)c2)S1 (stereo not drawn)
5. Cc1ccc(CN2CCN(C3CSCCSC3)CC2CCO)o1 (stereo not drawn)

*A*
1. 5.17
2. -0.819
3. 11.2
4. 4.8
5. -8.51

###

assay.notes: Toxicity liver stage against HepG2, at 10uM
Type: cell-based
Parameters: test concentration 10 uM, cell line HepG2-A16-CD81EGFP
measurement.setup: human, HepG2-A16-CD81EGFP cells; read-out: INHIBITION
What cytotoxicity at 10 µM was measured for each of the following?
Give bare numbers, in %.

>  <compound>
CC(C)(O)CN1CCN(C(=O)c2cc(Cl)cc3cccnc23)CC1

>  <cytotoxicity at 10 µM, %>
-7.93

$$$$
>  <compound>
Cc1cc(C)n(C2CCCN(C(=O)CN(C)C3CC3)C2)n1 (centres undefined)

>  <cytotoxicity at 10 µM, %>
-1.91

$$$$
>  <compound>
O=C1COc2cccc(OCc3ccccn3)c2N1

>  <cytotoxicity at 10 µM, %>
2.2

$$$$

API: the following record is the query input.
Reported cytotoxicity at 10 µM ( O=C1CCCN1CCC1CCCCN1C(=O)c1ccc(SCCO)cc1 (centres undefined) ) = -43

###

Answer each item with its documented cytotoxicity at 10 µM.
assay.notes: Toxicity liver stage against HepG2, at 10uM
Assay type: cell-based
Set-up: test concentration 10 uM, cell line HepG2-A16-CD81EGFP
measurement.setup: human, HepG2-A16-CD81EGFP cells; read-out: INHIBITION
One number for each entry, in %.

Sample records with cytotoxicity at 10 µM:
>  <compound>
CCCc1ncc(C(=O)N2CCOC(c3nc(C)n[nH]3)C2)s1 (centres undefined)

>  <unit.info>
%

>  <cytotoxicity at 10 µM>
-0.12

$$$$
>  <compound>
O=C1CSC(c2cccs2)c2cnn(C3CCCC3)c2N1 (centres undefined)

>  <unit.info>
%

>  <cytotoxicity at 10 µM>
5.99

$$$$

State the recorded cytotoxicity at 10 µM for every item in the following list.
1. Cn1c2c(c(=O)n1C)CN(C(=O)c1ccsc1)CCC2
2. c1cnc2c(c1)cc([C@H]1CCCO1)n2CCN1CCCCC1
3. CN1C[C@H](O)[C@]2(CCN(C(=O)NCc3ccccc3)C2)S1(=O)=O

*A*
5.04
4.99
4.53

# per-item lookup of cytotoxicity at 10 µM; items listed below
1. CC(C)c1nnc2n1CCN(C(=O)c1cc3cc(F)ccc3[nH]1)C2
2. CCN(Cc1ccncc1)C1CCCN(Cc2ccc(F)cc2Cl)C1 (centres undefined)

*A*
1. 3.98
2. 7.94

Record cytotoxicity at 10 µM for all entries; do not skip any.
1. Cc1csc(CN(C)C(=O)Nc2cc(F)cc(N3CCCC3)c2)n1
2. O=c1[nH]nc2nc(N3CCCC3)ccn12
3. CC1c2ncc(COCC3CCOCC3)n2CCN1Cc1cccnc1 (centres undefined)
4. Cc1noc(C)c1CN(C)C(=O)C1CCCN1S(N)(=O)=O (centres undefined)
5. O=C(NCc1nnc2n1CCCC2)c1cn(-c2ccccc2)nn1
6. CS(=O)(=O)N1CC[C@]2(O)CCN(c3ccnc(N)n3)C[C@@H]2C1
7. Cc1ccc(C(C)(O)CNC(=O)NCCc2ccc3c(c2)CCO3)o1 (centres undefined)

*A*
8.16
-6.07
5.95
7.89
-2.12
21
-4.53

###

assay.notes: Toxicity liver stage against HepG2, at 10uM
Assay type: cell-based
Set-up: test concentration 10 uM, cell line HepG2-A16-CD81EGFP
measurement.setup: human, HepG2-A16-CD81EGFP cells; read-out: INHIBITION
measurement.kind: cytotoxicity at 10 µM (%)
Numbers only, in %.

Examples with their reported cytotoxicity at 10 µM follow.
>  <compound>
Cc1nn(C)c2nc(NC3CCNCC3)sc12

>  <measurement.kind>
cytotoxicity at 10 µM

>  <unit.info>
%

>  <result.value>
-10.4

$$$$
>  <compound>
CCc1nc(CN2CCOC(Cn3nc(C)cc3C)C2)no1 (configuration not stated)

>  <measurement.kind>
cytotoxicity at 10 µM

>  <unit.info>
%

>  <result.value>
4.36

$$$$
>  <compound>
O=C(c1ccsc1)N1CCCC(c2cc(C(F)(F)F)[nH]n2)C1 (configuration not stated)

>  <measurement.kind>
cytotoxicity at 10 µM

>  <unit.info>
%

>  <result.value>
-4.22

$$$$
>  <compound>
COCCNC(=O)c1cc(C(C)C)nc(N2CCCC2)n1

>  <measurement.kind>
cytotoxicity at 10 µM

>  <unit.info>
%

>  <result.value>
5.03

$$$$
>  <compound>
Cc1cnn(CC2CCCN2Cc2coc(-c3cccs3)n2)c1 (configuration not stated)

>  <measurement.kind>
cytotoxicity at 10 µM

>  <unit.info>
%

>  <result.value>
-3.01

$$$$
>  <compound>
Cc1ccccc1OC1CN(Cc2c(C)nc3ccccn23)C1

>  <measurement.kind>
cytotoxicity at 10 µM

>  <unit.info>
%

>  <result.value>
43.3

$$$$

Now consider the entry below.
cytotoxicity at 10 µM for COc1ccc(OCc2cc(C(=O)N3CCN[C@H](C)C3)n[nH]2)c(Cl)c1 is -11.7
